Experiment: Time course of conversion to indirubin in FaSSGF at 37° C.
Assay type: physicochemical
Details: FaSSGF (Example 4; table title prints FaSSIF) 37° C., 2 h
measured.quantity: indirubin methylene alcohol (%)

Examples with answers:
{"columns": ["compound", "quantity.unit", "val"],
 "data": [
  ["O=C1/C(=C2/C(=O)N(CN3CCC3)c3ccccc32)Nc2ccccc21 [drawing 275]", "%", 2],
  ["O=C1/C(=C2/C(=O)N(C(=O)NC3CCOCC3)c3ccccc32)Nc2ccccc21 [drawing 278]", "%", 0]
]}

I = CC(=O)N1CCN(CN2C(=O)/C(=C3\Nc4ccccc4C3=O)c3ccccc32)CC1 [drawing 281]
II = CN(C)C1CCN(CN2C(=O)/C(=C3\Nc4ccccc4C3=O)c3ccccc32)CC1 [drawing 272]
**Q:** Between I and II , which one has the lower reported indirubin methylene alcohol value? Identify your pick by its label.
**A:** I
(I: 0%, II: 10%)

---

Experiment: Time course of conversion to indirubin in FaSSIF at 37° C.
Format: physicochemical
Conditions: FaSSIF 37° C., 2 h
measured.quantity: indirubin methylene alcohol (%)

Examples with answers:
{"columns": ["compound", "indirubin methylene alcohol / %"],
 "data": [
  ["CC(=O)N1CCN(CN2C(=O)/C(=C3\\Nc4ccccc4C3=O)c3ccccc32)CC1 [drawing 258]", 10],
  ["CNCCNC(=O)N1C(=O)/C(=C2\\Nc3ccccc3C2=O)c2ccccc21.Cl [drawing 264]", 0]
]}

1 = CN(C)C1CCN(CN2C(=O)/C(=C3\Nc4ccccc4C3=O)c3ccccc32)CC1 [drawing 256]
2 = CN(C)CCN(CCN(C)C)CN1C(=O)/C(=C2\Nc3ccccc3C2=O)c2ccccc21 [drawing 257]
**Q:** Between 1 and 2 , which one has the lower reported indirubin methylene alcohol value? Identify your pick by its label.
**A:** 1
(1: 7%, 2: 10%)

---

Assay: Stability of indirubin prodrugs in simulated fluids (FaSSIF, FaSSGF), 24 h at 37° C., UPLC-MS
Assay type: physicochemical
Conditions: FaSSGF 37° C. 24 h
measured.quantity: Fraction (percent) of indirubin (%)

{"columns": ["compound", "Fraction (percent) of indirubin, %"],
 "data": [
  ["O=C1/C(=C2/C(=O)N(CS(=O)(=O)c3ccccc3)c3ccccc32)Nc2ccccc21", 0]
]}

A = CN1CCC(NC(=O)N2C(=O)/C(=C3\Nc4ccccc4C3=O)c3ccccc32)CC1=O (centres unmarked)
B = CN1CCN(CCNC(=O)N2C(=O)/C(=C3\Nc4ccccc4C3=O)c3ccccc32)CC1
**Q:** Between A and B , which one has the lower reported Fraction (percent) of indirubin value? Identify your pick by its label.
**A:** A

---

Assay: Time course of conversion to indirubin in FaSSIF at 37° C.
Format: physicochemical
Conditions: FaSSIF 37° C., 1 h
measured.quantity: indirubin methylene alcohol (%)

Examples with answers:
{"columns": ["molecule", "measured.quantity", "val"],
 "data": [
  ["CN1CCN(CN2C(=O)/C(=C3\\Nc4ccccc4C3=O)c3ccccc32)CC1 [drawing 265]", "indirubin methylene alcohol", 0],
  ["O=C1/C(=C2/C(=O)N(CN3CCOCC3)c3ccccc32)Nc2ccccc21 [drawing 261]", "indirubin methylene alcohol", 0],
  ["CN(C)C1CCN(CN2C(=O)/C(=C3\\Nc4ccccc4C3=O)c3ccccc32)CC1 [drawing 256]", "indirubin methylene alcohol", 5]
]}

I = O=C1/C(=C2/C(=O)N(CN3CCCC3)c3ccccc32)Nc2ccccc21 [drawing 255]
II = O=C1/C(=C2/C(=O)N(CN3CCC3)c3ccccc32)Nc2ccccc21 [drawing 266]
III = CN(C)CCN(CCN(C)C)CN1C(=O)/C(=C2\Nc3ccccc3C2=O)c2ccccc21 [drawing 257]
**Q:** Rank the items in ascending order with respect to indirubin methylene alcohol. Form field (ranking): labels in requested order.
**A:** I, II, III
(I: 0%, II: 5%, III: 13%)

---

Assay: Time course of conversion to indirubin in FaSSGF at 37° C.
Assay type: physicochemical
Settings: FaSSGF (Example 4; table title prints FaSSIF) 37° C., 30 min
measured.quantity: indirubin methylene alcohol (%)

{"columns": ["compound", "indirubin methylene alcohol [%]"],
 "data": [
  ["CN(C)CCN(C)CN1C(=O)/C(=C2\\Nc3ccccc3C2=O)c2ccccc21 [drawing 268]", 6],
  ["O=C1/C(=C2/C(=O)N(CN3CCCCC3)c3ccccc32)Nc2ccccc21 [drawing 269]", 0],
  ["CC(=O)N1CCN(CN2C(=O)/C(=C3\\Nc4ccccc4C3=O)c3ccccc32)CC1 [drawing 281]", 0],
  ["CNCCNC(=O)N1C(=O)/C(=C2\\Nc3ccccc3C2=O)c2ccccc21.Cl [drawing 279]", 0],
  ["O=C1/C(=C2/C(=O)N(CN3CCCC3)c3ccccc32)Nc2ccccc21 [drawing 270]", 0],
  ["O=C1/C(=C2/C(=O)N(CO)c3ccccc32)Nc2ccccc21 [drawing 274]", 82]
]}

I = CN1CCN(CN2C(=O)/C(=C3\Nc4ccccc4C3=O)c3ccccc32)CC1 [drawing 273]
II = CN(C)C1CCN(CN2C(=O)/C(=C3\Nc4ccccc4C3=O)c3ccccc32)CC1 [drawing 272]
**Q:** Between I and II , which one has the lower reported indirubin methylene alcohol value? Identify your pick by its label.
**A:** I
(I: 0%, II: 5%)

---

Assay: Time course of conversion to indirubin in FaSSIF at 37° C.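 Also: test compound, about 1-3 mg in 5 mL FaSSIF, sampled and analysed by UPLC-MS with PDA UV (210-400 nm), QDa mass and evaporative light scattering detection.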
Type: physicochemical
Details: FaSSIF 37° C., 2 h
measured.quantity: indirubin (%)

{"columns": ["compound", "measured.quantity", "val"],
 "data": [
  ["O=C1/C(=C2/C(=O)N(CN3CCOCC3)c3ccccc32)Nc2ccccc21 [drawing 261]", "indirubin", 7],
  ["CN(C)C1CCN(CN2C(=O)/C(=C3\\Nc4ccccc4C3=O)c3ccccc32)CC1 [drawing 256]", "indirubin", 70],
  ["CNCCNC(=O)N1C(=O)/C(=C2\\Nc3ccccc3C2=O)c2ccccc21.Cl [drawing 264]", "indirubin", 0],
  ["CN1CCN(CN2C(=O)/C(=C3\\Nc4ccccc4C3=O)c3ccccc32)CC1 [drawing 265]", "indirubin", 18],
  ["CCN(CC)CN1C(=O)/C(=C2\\Nc3ccccc3C2=O)c2ccccc21 [drawing 252]", "indirubin", 100],
  ["O=C1/C(=C2/C(=O)N(CN3CCC(F)(F)CC3)c3ccccc32)Nc2ccccc21 [drawing 260]", "indirubin", 49],
  ["O=C1/C(=C2/C(=O)N(COS(=O)(=O)O)c3ccccc32)Nc2ccccc21 [drawing 262]", "indirubin", 7],
  ["O=C1/C(=C2/C(=O)N(CN3CCC3)c3ccccc32)Nc2ccccc21 [drawing 266]", "indirubin", 13],
  ["O=C1/C(=C2/C(=O)N(C(=O)NC3CCOCC3)c3ccccc32)Nc2ccccc21 [drawing 263]", "indirubin", 10],
  ["CN(C)CCN(CCN(C)C)CN1C(=O)/C(=C2\\Nc3ccccc3C2=O)c2ccccc21 [drawing 257]", "indirubin", 83]
]}

1 = O=C1/C(=C2/C(=O)N(CN3CCCC3)c3ccccc32)Nc2ccccc21 [drawing 255]
2 = CC(=O)N1CCN(CN2C(=O)/C(=C3\Nc4ccccc4C3=O)c3ccccc32)CC1 [drawing 258]
**Q:** Between 1 and 2 , which one has the lower reported indirubin value? Identify your pick by its label.
**A:** 2
(2: 21%, 1: 100%)

---

Assay: Time course of conversion to indirubin in FaSSGF at 37° C.
Format: physicochemical
Conditions: FaSSGF (Example 4; table title prints FaSSIF) 37° C., 1 h
measured.quantity: indirubin (%)

{"columns": ["compound", "indirubin (%)"],
 "data": [
  ["CN1CCN(CN2C(=O)/C(=C3\\Nc4ccccc4C3=O)c3ccccc32)CC1 [drawing 273]", 24],
  ["O=C1/C(=C2/C(=O)N(CO)c3ccccc32)Nc2ccccc21 [drawing 274]", 12],
  ["CC(=O)N1CCN(CN2C(=O)/C(=C3\\Nc4ccccc4C3=O)c3ccccc32)CC1 [drawing 281]", 4],
  ["O=C1/C(=C2/C(=O)N(CN3CCC3)c3ccccc32)Nc2ccccc21 [drawing 275]", 25]
]}

I = CN(C)C1CCN(CN2C(=O)/C(=C3\Nc4ccccc4C3=O)c3ccccc32)CC1 [drawing 272]
II = CNCCNC(=O)N1C(=O)/C(=C2\Nc3ccccc3C2=O)c2ccccc21.Cl [drawing 279]
**Q:** Field: entry with larger indirubin (options I / II ). Identify your pick by its label.
**A:** I

---

Test: Time course of conversion to indirubin in FaSSGF at 37° C.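 Also: compound incubated in fasted state simulated gastric fluid, species in samples quantified by UPLC-MS with UV (210–400 nm) and ELS detection.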
Format: physicochemical
Conditions: FaSSGF (Example 4; table title prints FaSSIF) 37° C., 24 h
measured.quantity: starting material (prodrug compound) (%)

1 = CN(C)C1CCN(CN2C(=O)/C(=C3\Nc4ccccc4C3=O)c3ccccc32)CC1 [drawing 272]
2 = CC(=O)N1CCN(CN2C(=O)/C(=C3\Nc4ccccc4C3=O)c3ccccc32)CC1 [drawing 281]
**Q:** Field: entry with larger starting material (prodrug compound) (options 1 / 2 ). Identify your pick by its label.
**A:** 2
(2: 100%, 1: 31%)
